EXPERIMENTAL_SYSTEM: T1, full-length human APLNR (human, UniProt P35414 1-380)
T1 construct: Stably expressed on HEK293/CRE-luc/hAPLNR cells (FACS, CRE-luc assays) and on CHO/hAPLNR cells (pERK assays); also called hAPLNR; apelin receptor
T1 sequence: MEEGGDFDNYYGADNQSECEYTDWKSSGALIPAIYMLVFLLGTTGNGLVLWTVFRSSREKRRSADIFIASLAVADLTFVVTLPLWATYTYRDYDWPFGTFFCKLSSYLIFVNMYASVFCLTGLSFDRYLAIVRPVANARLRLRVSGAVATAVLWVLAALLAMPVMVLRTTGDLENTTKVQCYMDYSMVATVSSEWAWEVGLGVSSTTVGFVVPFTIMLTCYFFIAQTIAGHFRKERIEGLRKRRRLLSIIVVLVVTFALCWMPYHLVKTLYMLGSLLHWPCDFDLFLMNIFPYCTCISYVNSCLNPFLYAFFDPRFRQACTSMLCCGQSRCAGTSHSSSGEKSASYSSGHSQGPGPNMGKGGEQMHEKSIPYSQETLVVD
ASSAY_TEXT: FACS, 10 µg/mL antibody, HEK293/CRE-luc/hAPLNR cells
Can you tell me Binding Ratio of Geom. Mean to Unstained Cells for the items I'm about to list?
Numbers only, in fold.

>>> meas_value("H4H9103P (antibody, V domains shown, Fully human, human IgG4 Fc) VH: EVQLVESGGGLVQPGRSLRLSCAASGFTFDDYAMHWVRQVPGKGLEWVSGITWNSGDIGYADSVKGRFTISRDNAKNSLYLQMNSLRAEDTALYYCTKDKDSSGYYGIDVWGQGTTVTVSS VL: DIQMTQSPSSVSASVGDRVTITCRASQGIRTWLAWYQQKPGKAPKLLIYAASSLQSGVPSRFSGSESGTDFTLTISSLQPEDFATYYCQQANSFPFTFGPGTKVDIK")
3

The recorded Binding Ratio of Geom. Mean to Unstained Cells for entry H4H9112P (antibody, V domains shown, Fully human, human IgG4 Fc) VH: QVQLVQSGAEVKKPGASVEVSCKASGYTFTDYYIHWIRQAPGQGLEWMGWINPDSGRTNYAQKFQVRVTMTRDTSITTAYMELNRLKSDDTAVYYCARGPLRGYSGYDFFDYWGQGTLVTVSS VL: DIQMTQSPSSLSAFVGDRVTITCRASQSISSYLNWYQQKPGKAPKLLIYTASTLQRGVPSRFRGSGSGTDFTLTISSLQPEDFATYYCHQTYSIPITFGQGTRLEIK equals 2
